Assignment: determine reported koff for the given substances.
study.system: WDR5 Y260H (Homo sapiens, UniProt P61964, Y260H)
measurement.notes: Biolayer interferometry (BLI), Y260H
Type: binding
measurement.setup: pH 7.5, read-out: koff (dissociation rate constant)
No end group written: not given here.
Provide the reading as a plain figure in s⁻¹.

What koff value was documented for this substance, LNPHGAARAEVYLS-NH2 [MLL4Win] ?
0.047

What koff value was documented for this substance, INPTGCARSEPKIL-NH2 [MLL2Win] ?
0.013

What koff value was documented for this substance, EHQTGSARSEGYYP-NH2 [SETd1AWin] ?
0.098

What koff value was documented for this substance, VNPTGCARSEPKMS-NH2 [MLL3Win] ?
0.0077

====

study.system: WDR5 S175L (Homo sapiens, UniProt P61964, S175L)
measurement.notes: Biolayer interferometry (BLI), S175L
Format: binding
No end group written: not given here.
recorded.metric: Kd (µM)
Provide the reading as a plain figure in µM.

Item: LNPHGAARAEVYLS-NH2 [MLL4Win] Test system: WDR5 S175L (Homo sapiens, UniProt P61964, S175L) Read-out: Kd Value: ?
4.2

Item: EHQTGSARSEGYYP-NH2 [SETd1AWin] Test system: WDR5 S175L (Homo sapiens, UniProt P61964, S175L) Read-out: Kd Value: ?
1.4

Item: VNPTGCARSEPKMS-NH2 [MLL3Win] Test system: WDR5 S175L (Homo sapiens, UniProt P61964, S175L) Read-out: Kd Value: ?
0.33

Item: INPTGCARSEPKIL-NH2 [MLL2Win] Test system: WDR5 S175L (Homo sapiens, UniProt P61964, S175L) Read-out: Kd Value: ?
0.13

====

study.system: WDR5 P216L (Homo sapiens, UniProt P61964, P216L)
measurement.notes: Steady-state fluorescence polarization (FP), P216L
Format: binding
No end group written: not given here.
recorded.metric: pKd
The meaning of pKd here: minus log10 of the concentration in molar units.

Item: EHQTGSARSEGYYP-NH2 [SETd1AWin] Test system: WDR5 P216L (Homo sapiens, UniProt P61964, P216L) Read-out: pKd Value: ?
7.41

Item: LNPHGAARAEVYLS-NH2 [MLL4Win] Test system: WDR5 P216L (Homo sapiens, UniProt P61964, P216L) Read-out: pKd Value: ?
6.16

Item: VNPTGCARSEPKMS-NH2 [MLL3Win] Test system: WDR5 P216L (Homo sapiens, UniProt P61964, P216L) Read-out: pKd Value: ?
7.72

Item: INPTGCARSEPKIL-NH2 [MLL2Win] Test system: WDR5 P216L (Homo sapiens, UniProt P61964, P216L) Read-out: pKd Value: ?
7.74

====

Assignment: determine reported koff for the given substances.
study.system: WDR5 F133L (Homo sapiens, UniProt P61964, F133L)
measurement.notes: Biolayer interferometry (BLI), F133L
Assay type: binding
measurement.setup: pH 7.5, read-out: koff (dissociation rate constant)
No end group written: not given here.
Provide the reading as a plain figure in s⁻¹.

What koff value was documented for this substance, VNPTGCARSEPKMS-NH2 [MLL3Win] ?
0.1

What koff value was documented for this substance, EHQTGSARSEGYYP-NH2 [SETd1AWin] ?
0.69

What koff value was documented for this substance, INPTGCARSEPKIL-NH2 [MLL2Win] ?
0.14
